Tested on: NCI-H460 lung
method: NCI-60 one-dose screen, 48 h
condition context: 10 µM unless noted
The panel holds about 83,000 compounds, 20% with a hit somewhere; the sample as a whole holds those more often. Active and inactive are the calls of the source. How the source made its calls: active means growth percent below 10; inactive means the rest.
One label from this list, please: TRUE for active, FALSE for inactive

Some solved cases for reference:
molecule | qualitative label
O=C1CCCc2cc(OCC(=O)N3CCCCC3)ccc2N1 | FALSE
Cc1cccc(-c2nc(Nc3ccc(C)c(S(N)(=O)=O)c3)c3ccccc3n2)c1 | FALSE

Query block: Recorded test call requested for N#Cc1c(-c2ccc(Cl)cc2)nc2n[nH]c(-c3ccc(Cl)cc3)c2c1-c1ccc(C(F)(F)F)cc1
Result block: TRUE

Query block: Recorded test call requested for N#Cc1c(-c2ccccc2Cl)cc(-c2ccc3ccccc3c2)[nH]c1=O
Result block: TRUE

Query block: Recorded test call requested for COc1cccc(-c2c(C#N)c(-c3ccc(Cl)cc3)nc3n[nH]c(-c4ccc(Cl)cc4)c23)c1
Result block: FALSE

Query block: Recorded test call requested for N/C(=N\N=C\c1ccc([N+](=O)[O-])cc1)c1c(N)nc(=S)[nH]c1-c1ccc(Cl)cc1Cl
Result block: FALSE

Query block: Recorded test call requested for O=c1[nH]c(=O)c2c(-c3cc4ccccc4oc3=O)ccnc2[nH]1
Result block: FALSE

Query block: Recorded test call requested for CC12CC[C@@H]3[C@]4(C)COC(c5c(F)cccc5F)O[C@@H]4CC[C@@]3(C)[C@@H]1CC(C1=CCOC1=O)O2 (some centres undefined)
Result block: FALSE

Query block: Recorded test call requested for COc1ccc(-c2nc3cc(C)ccc3n2CC(=O)N=Nc2c(O)[nH]c3ccc(OC)cc23)cc1
Result block: TRUE

---

Test system: PC-3 prostate
method: NCI-60 one-dose screen, 48 h (100 = growth as untreated, 0 = no growth, -100 = all killed)
condition context: 10 µM unless noted
About 83,000 compounds went through this panel and 20% of them were active in at least one assay; those are over-represented in the sample as a whole. Calls of active or inactive are those of the source. How the source made its calls: active means growth percent below 10; inactive means the rest.
observable: growth

molecule | assay target | growth
Brc1ccc(-c2n(Cc3ccc4ccccc4c3)c(-c3ccccc3)c(-c3ccccc3)[n+]2Cc2ccc3ccccc3c2)cc1 | PC-3 prostate | -29.3% (active)

Query block: Data request, read-out growth, for COc1ccc(-c2nc(SC(C)C)nc(NCCc3c[nH]c4ccccc34)c2C#N)cc1
Result block: 11.7% (inactive)

Query block: Data request, read-out growth, for COc1cc(C2CC(c3ccc(S(=O)(=O)NCCNc4nc(Nc5ccc(F)cc5)nc(N(C)C)n4)cc3)=Nc3c(N)nc(N)nc3N2)cc(OC)c1OC (centres undefined)
Result block: 86.3% (inactive)

Query block: Data request, read-out growth, for C#C[C@]1(O)CC[C@H]2[C@@H]3CC=C4c5sc(-c6ccc([N+](=O)[O-])cc6)nc5CC[C@]4(C)[C@H]3CC[C@@]21C
Result block: 1.72% (active)

---

Listing of entries alongside the reported growth.
Tested on: SNB-19 CNS
method: NCI-60 one-dose screen, 48 h (100 = growth as untreated, 0 = no growth, -100 = all killed)
condition context: 10 µM unless noted
This is part of a sample that, as a whole, favours compounds with a hit. Of some 83,000 tested, about 20% had one in any assay.
Express your answer in %, writing the number without its unit.

Below, each entry is followed by its recorded growth result.
compound | growth [%]
CC1=C(C#N)C2=NNCC(c3ccccc3)=NN2C(c2ccccc2)=C1 | 97.3
O=C(NNc1nc2cc(F)ccc2n2c(C(=O)N3CCN(C4CC4)CC3)ccc12)c1ncccn1 | 30.7
C#CCOc1cc(N(CC)CC)ccc1C(C(=O)NC(C)(C)C)N(C(=O)C1CCc2cc(F)ccc2O1)c1ccc(F)cc1 (centres undefined) | 41.6
N#Cc1c(-c2ccc(Cl)cc2)nc2n[nH]c(-c3ccc(Cl)cc3)c2c1-c1ccc(C(F)(F)F)cc1 | 11.3
Cc1cc(C)n(-c2ccc3nnc(-c4ccccc4)n3n2)n1 | 98.3
COc1ccc(-c2c(Nn3cnnn3)no[n+]2[O-])cc1 | 71
Cn1cc(-c2cc(N)n3nc(-c4cn(C)c5ccc(Cl)cc45)cc3n2)c2ccccc21 | 108
N#Cc1c(-c2ccc(Br)cc2)nc2n[nH]c(-c3ccc(Br)cc3)c2c1-c1ccc(F)cc1 | 102

Query block: Data request, read-out growth, for Cc1ccc(-c2nnc3ccc(N/N=C/c4ccccc4)nn23)cc1
Result block: 86.6
